// data source = the array DNA melting data of Ke et al. (doi:10.1101/2024.01.08.574731)

experiment: melting temperature; fluorescence melt of hairpins on a sequencing array, two-state fit, raised by 9.35 °C to match UV melts; conditions: sodium 0.088 M
Assay Readout: Tm (°C)
Dear colleague, please return just the value in °C, with no unit written.

{"Chain": "CGCGACGGAAACGTTGCG (((.(((....))).)))", "Tm (°C)": 61}
{"Chain": "GATCATTCCAATGATC ((((((....))))))", "Tm (°C)": 50.4}
{"Chain": "GCTACCGAAAGGTTCAGC ((((((....)))..)))", "Tm (°C)": 35.5}
{"Chain": "GGAGACGAAAGTCGCTCC ((((((....)))..)))", "Tm (°C)": 42.4}
{"Chain": "GTCCAGGGAAACCTGGGC (.(((((....))))).)", "Tm (°C)": 56.5}
{"Chain": "GATCTGAAAGCAGATC ((((((....))))))", "Tm (°C)": 42.1}
{"Chain": "GAAGTGCGAAAGCATTC (((.(((....))))))", "Tm (°C)": 36.2}
{"Chain": "GCTGTGCGAAAGCAACGC ((..(((....)))..))", "Tm (°C)": 49.9}

Ask: Entry under review: GCAATCGAAAGATTTTGC ((((((....)))..))) . Reported Tm?
Reply: 28.8

Ask: Request: GATCGGGACGCCGATC ((((((....))))))
Reply: 59.5

Ask: Request: GCATTAGGAAACTAGTGC (((.(((....))).)))
Reply: 40.9

Ask: Request: GCTCCGCGAAAGCTGTGC ((.(.((....)).).))
Reply: 41.2

Ask: Request: GCGACCGAAAGGTACCGC ((((((....)))..)))
Reply: 47.2

Ask: Request: GATCTTACAAAAGATC ((((((....))))))
Reply: 39.6

Ask: Request: GGCGTCCGAAAGGAGCC (((.(((....))))))
Reply: 59.5

Ask: Request: GCCAGGCGAAAGCATAGC ((.(.((....)).).))
Reply: 37.8

Ask: Request: GTATGACCGAAAGGTTAC (((..(((....))))))
Reply: 30.5

Ask: Request: GATCGGTTCCCGATC ((((((...))))))
Reply: 59.3

Ask: Request: GTTCTCGAAAGAGACAAC ((((((....)))..)))
Reply: 30.6

Ask: Request: GCCCGCGAAAGCGTTGGC ((((((....)))..)))
Reply: 56.2

Ask: Request: GCCTACGAAAGTAGCGGC ((((((....)))..)))
Reply: 49.6

Ask: Request: GATCTGCATCCAGATC ((((((....))))))
Reply: 46.7

Ask: Request: GGCCCCCGAAAGGGCGCC (((.(((....))).)))
Reply: 58.3

Ask: Request: GCTAAAGCGAAAGCTAGC (((..(((....))))))
Reply: 47.3

Ask: Request: GGTTGGGCGAAAGCCACC (((..(((....))))))
Reply: 39.8

Ask: Request: GGGTGAACGAAAGTTCCC (((..(((....))))))
Reply: 50.1

Ask: Request: GTGGCTGGAAACAGTCAC (((.(((....))).)))
Reply: 55.1

Ask: Request: GCGGTTTTCCGC ((((....))))
Reply: 58.4

Ask: Request: GCAATCCGAAAGGAGTGC (((.(((....))).)))
Reply: 61.1

Ask: Request: GGGCACGAAAGTGGGCCC ((((((....)))..)))
Reply: 58.4

Ask: Request: GGCGTAGGAAACTACGTC (.(((((....))))).)
Reply: 52.4

Ask: Request: GGTCAACGAAAGTTAACC (((.(((....))).)))
Reply: 39.3

Ask: Request: GCCAGGGGAAACCCCGGC (((.(((....))).)))
Reply: 59.8

Ask: Request: GATCGCCATCGCGATC ((((((....))))))
Reply: 65

Ask: Request: GACCACGAAAGTGCTGTC ((((((....)))..)))
Reply: 34

Ask: Request: GTCCGAGGAAACCCGGAC (((((.(....).)))))
Reply: 53.2
